Catalogue of protein stability index values
B1: DYRK1B (parent)
chain: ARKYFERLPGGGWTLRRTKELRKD

Variants of: B1
EXPERIMENTAL DETAILS: protein stability index of a GFP-peptide fusion (GPS, HEK-293T) (PSI 1-6); higher = more stable;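 further: lentivirally expressed fusions sorted by FACS into six bins by GFP to DsRed ratio, PSI derived from sequencing read proportions per bin multiplied by bin number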
CONDITION: c terminus: a fixed tail appended
The answer should be a number; do not append a unit.

Examples with answers:
{"VARIANT KEY": "T14Y", "protein stability index": 3.01}
{"VARIANT KEY": "K3P", "protein stability index": 2.96}
{"VARIANT KEY": "R2C", "protein stability index": 3.03}
{"VARIANT KEY": "G12Q", "protein stability index": 2.95}
{"VARIANT KEY": "R17Y", "protein stability index": 3.02}
{"VARIANT KEY": "D24R", "protein stability index": 3}
{"VARIANT KEY": "L15N", "protein stability index": 2.95}

Next, consider the following variant.
Qu. Name the reported protein stability index value associated with the variant R7T
Ans. 2.99
